// provenance: patent US8383637B2

Measured % Inhibition, listed per entry.
# tested.on: β-secretase(BACE) (Homo sapiens)
# Construct: purchased Panvera
# Sequence (P56817 46-501): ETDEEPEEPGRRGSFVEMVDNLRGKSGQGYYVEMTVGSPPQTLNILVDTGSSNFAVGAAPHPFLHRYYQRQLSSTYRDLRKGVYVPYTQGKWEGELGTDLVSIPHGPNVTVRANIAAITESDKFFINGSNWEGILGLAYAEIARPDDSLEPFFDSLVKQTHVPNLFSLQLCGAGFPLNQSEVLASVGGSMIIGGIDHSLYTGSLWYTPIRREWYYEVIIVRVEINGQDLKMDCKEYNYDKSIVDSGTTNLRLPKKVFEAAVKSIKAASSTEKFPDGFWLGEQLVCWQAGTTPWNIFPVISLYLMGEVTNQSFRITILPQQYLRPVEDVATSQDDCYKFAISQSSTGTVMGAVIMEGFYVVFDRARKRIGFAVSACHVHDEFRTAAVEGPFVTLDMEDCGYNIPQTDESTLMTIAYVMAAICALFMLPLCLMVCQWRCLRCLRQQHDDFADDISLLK
# assay.text: BACE % Inhibition Assay ((Aedens)-[…]-(Dabcyl K-amide) substrate)
# Format: biochemical
# reported.conditions: 3 μM test compound; % error ±10%
# Procedure: The substrate stock solution was prepared in DMSO as a 10 mg/mL solution. The substrate working solution was prepared by diluting the 10 mg/mL stock solution with substrate assay buffer to a final concentration of 300 μg/mL. The β-secretase (BACE) working solution was prepared by diluting a 0.83 mg/mL BACE stock solution with enzyme assay buffer to a final concentration of 4 μg/mL. […] For test compounds, % inhibition was determined at each concentration as follows: […]

CN(C(=O)c1ccc(CN2Cc3cc(Oc4ccccc4)ccc3N=C2N)cc1)C1CCCCC1
<30%
CCCN1Cc2cc(Oc3cccc(N(C#N)CC4CCCCC4)c3)ccc2N=C1N
35%
NC1=Nc2ccc(Oc3ccccc3)cc2CN1Cc1cccc(CNC(=O)C(c2ccccc2)c2ccccc2)c1
<30%
CCCCC(CC)C(=O)NCC(c1ccccc1)N1Cc2cc(Oc3ccccc3)ccc2N=C1N (stereo not shown)
72%
NC1=Nc2ccc(Oc3ccccc3)cc2CN1C(CNC(=O)C1(c2ccc(Cl)cc2)CCCC1)C1CCCCC1 (stereo not shown)
102%
Cc1ccc(S(=O)(=O)NCCN2Cc3cc(Oc4ccccc4)ccc3N=C2N)cc1
<30%
CCN(CC)CCN1Cc2cc(Oc3ccccc3)ccc2N=C1N
<30%
CCCCC(CC)C(=O)NCc1cccc(CN2Cc3cc(Oc4ccccc4)ccc3N=C2N)c1 (stereo not shown)
<30%

**Q:** Recorded % Inhibition of CC(C)(C)OC(=O)N1CCC(N2Cc3cc(Oc4ccccc4)ccc3N=C2N)C1 (stereo not shown) , please.
**A:** <30%

**Q:** Recorded % Inhibition of CCOC(=O)CCN1Cc2cc(Oc3ccccc3)ccc2N=C1N , please.
**A:** <30%

**Q:** Recorded % Inhibition of CN(C(=O)c1cccc(N2Cc3cc(Oc4ccccc4)ccc3N=C2N)c1)C1CCCCC1 , please.
**A:** <30%

**Q:** Recorded % Inhibition of CCCC(CCC)C(=O)NCc1cccc(CN2Cc3cc(Oc4ccccc4)ccc3N=C2N)c1 , please.
**A:** <30%

**Q:** Recorded % Inhibition of CN(C(=O)C1CCC(CN2Cc3cc(Oc4ccccc4)ccc3N=C2N)CC1)C1CCCCC1 (stereo not shown) , please.
**A:** <30%

**Q:** Recorded % Inhibition of CN(C(=O)[C@@H]1CCCC[C@@H]1N1Cc2cc(Oc3ccccc3)ccc2N=C1N)C1CCCCC1 , please.
**A:** <30%

**Q:** Recorded % Inhibition of CCCC(CCC(=O)N(C)C1CCCCC1)N1Cc2cc(Oc3ccccc3)ccc2N=C1N (stereo not shown) , please.
**A:** 72%

**Q:** Recorded % Inhibition of CN(C(=O)[C@H]1CCCC[C@H]1N1Cc2cc(Oc3ccccc3)ccc2N=C1N)C1CCCCC1 , please.
**A:** <30%
